Method Notes: Metabolic stability in rat liver microsomes assessed as intrinsic clearance […] measured upto 60 mins in presence of NADPH by LC-MS/MS analysis
Format: ADME, Microsome
Run Parameters: read-out: CLH
Measure Name: microsomal CLint (µL/min/mg)

1) FC(F)c1nc2ccccc2n1-c1nc(N2CCOCC2)nc(N2CCOCC2)n1 ... 54
2) COc1cccc2c1nc(C(F)F)n2-c1nc(N2CCOCC2)nc(N2CCN(C(=S)SCC(=O)N3CCN(S(C)(=O)=O)CC3)CC2)n1 ... 64

====

Method Notes: Metabolic stability in rat liver microsomes assessed as half life […] measured upto 60 mins in presence of NADPH by LC-MS/MS analysis
Format: ADME, Microsome
Measure Name: half-life (min)

1) COc1cccc2c1nc(C(F)F)n2-c1nc(N2CCOCC2)nc(N2CCN(C(=S)SCC(=O)N3CCN(S(C)(=O)=O)CC3)CC2)n1 ... 21.5
2) FC(F)c1nc2ccccc2n1-c1nc(N2CCOCC2)nc(N2CCOCC2)n1 ... 25.7

====

Experimental Target: Phosphatidylinositol 4,5-bisphosphate 3-kinase catalytic subunit alpha isoform (Homo sapiens)
Sequence (P42336 whole entry, the tested form may be a part, canonical isoform): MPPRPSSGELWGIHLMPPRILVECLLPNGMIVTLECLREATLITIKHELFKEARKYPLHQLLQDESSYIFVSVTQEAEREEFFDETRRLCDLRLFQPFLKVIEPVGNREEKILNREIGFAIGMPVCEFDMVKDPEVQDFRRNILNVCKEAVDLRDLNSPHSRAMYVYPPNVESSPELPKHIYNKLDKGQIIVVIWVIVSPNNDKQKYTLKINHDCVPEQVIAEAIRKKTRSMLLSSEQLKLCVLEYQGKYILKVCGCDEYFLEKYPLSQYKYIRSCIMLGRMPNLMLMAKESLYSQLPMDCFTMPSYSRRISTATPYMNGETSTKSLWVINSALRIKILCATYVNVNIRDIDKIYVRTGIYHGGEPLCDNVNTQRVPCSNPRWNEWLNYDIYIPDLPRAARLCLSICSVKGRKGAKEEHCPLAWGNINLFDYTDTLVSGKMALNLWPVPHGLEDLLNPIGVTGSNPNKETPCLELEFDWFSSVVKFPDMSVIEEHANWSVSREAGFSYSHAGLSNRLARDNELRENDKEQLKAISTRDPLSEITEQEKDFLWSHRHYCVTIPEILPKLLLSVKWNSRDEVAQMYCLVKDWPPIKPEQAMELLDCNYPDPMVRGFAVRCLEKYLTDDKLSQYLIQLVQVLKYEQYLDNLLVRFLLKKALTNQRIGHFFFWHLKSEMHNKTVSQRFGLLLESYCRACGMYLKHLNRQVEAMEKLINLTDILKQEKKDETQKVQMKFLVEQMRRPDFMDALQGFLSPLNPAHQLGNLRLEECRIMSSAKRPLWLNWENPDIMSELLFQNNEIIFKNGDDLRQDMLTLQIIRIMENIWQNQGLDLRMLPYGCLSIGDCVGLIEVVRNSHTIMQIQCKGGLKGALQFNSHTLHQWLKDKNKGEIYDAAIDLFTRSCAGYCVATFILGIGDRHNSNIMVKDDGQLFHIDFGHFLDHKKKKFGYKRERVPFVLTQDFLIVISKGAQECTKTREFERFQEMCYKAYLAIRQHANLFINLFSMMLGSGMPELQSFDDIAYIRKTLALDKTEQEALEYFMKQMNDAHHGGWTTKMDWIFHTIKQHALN
Method Notes: Inhibition of N-terminal GST-fused full-length human PI3Kalpha (1 to 1068 residues) expressed in baculovirus expression system using PIP2 as substrate incubated for 1 hr in presence of ATP by ADP-Glo assay
# key: entry, value: IC50
Measure Name: IC50 (nM)

1) COc1cccc2c1nc(C(F)F)n2-c1nc(N2CCOCC2)nc(N2CCN(C(=S)SCC(N)=O)CC2)n1 ... 1.6
2) COCCSC(=S)N1CCN(c2nc(N3CCOCC3)nc(-n3c(C(F)F)nc4c(OC)cccc43)n2)CC1 ... 21
3) COc1cccc2c1nc(C(F)F)n2-c1nc(N2CCOCC2)cc(N2CCN(C(=S)SCCN3CCN(C)CC3)CC2)n1 ... 120
4) COc1cccc2c1nc(C(F)F)n2-c1nc(N2CCOCC2)nc(N2CCN(C(=S)SCC(=O)N(C)C)CC2)n1 ... 0.8
5) CCN(CC)C(=O)CSC(=S)N1CCN(c2nc(N3CCOCC3)nc(-n3c(C(F)F)nc4c(OC)cccc43)n2)CC1 ... 1.1
6) COc1cccc2c1nc(C(F)F)n2-c1nc(N2CCOCC2)nc(N2CCN(C(=S)SCC(=O)N3CCOCC3)CC2)n1 ... 0.7
7) COc1cccc2c1nc(C(F)F)n2-c1nc(N2CCOCC2)cc(N2CCN(C(=S)SCC(=O)NC3CC3)CC2)n1 ... 2.7
8) COc1cccc2c1nc(C(F)F)n2-c1nc(N2CCOCC2)nc(N2CCN(C(=S)SCC(=O)N3CCCC3)CC2)n1 ... 0.9
9) COc1cccc2c1nc(C(F)F)n2-c1nc(N2CCOCC2)cc(N2CCN(C(=S)SCC(=O)N3CCCC3)CC2)n1 ... 1.4
10) COc1cccc2c1nc(C(F)F)n2-c1nc(N2CCOCC2)nc(N2CCN(C(=S)SCC(=O)N3CCN(S(C)(=O)=O)CC3)CC2)n1 ... 1.2
11) COc1cccc2c1nc(C(F)F)n2-c1nc(N2CCOCC2)nc(N2CCN(C(=S)SCCN3CCOCC3)CC2)n1 ... 29
12) COc1cccc2c1nc(C(F)F)n2-c1nc(N2CCOCC2)cc(N2CCN(C(=S)SCC(=O)NC3CCCC3)CC2)n1 ... 34
13) CCN(CC)C(=O)CSC(=S)N1CCN(c2cc(N3CCOCC3)nc(-n3c(C(F)F)nc4c(OC)cccc43)n2)CC1 ... 1.3
14) COc1cccc2c1nc(C(F)F)n2-c1nc(N2CCOCC2)cc(N2CCN(C(=S)SCC(=O)NC3CCC3)CC2)n1 ... 3.3
15) COc1cccc2c1nc(C(F)F)n2-c1nc(N2CCOCC2)cc(N2CCN(C(=S)SCCN3CCOCC3)CC2)n1 ... 81
16) COc1cccc2c1nc(C(F)F)n2-c1nc(N2CCOCC2)cc(N2CCN(C(=S)SCC(=O)N3CCOCC3)CC2)n1 ... 1.2
17) COc1cccc2c1nc(C(F)F)n2-c1nc(N2CCOCC2)nc(N2CCN(C(=S)SCC(=O)NC3CCCC3)CC2)n1 ... 2.8
18) COc1cccc2c1nc(C(F)F)n2-c1nc(N2CCOCC2)nc(N2CCN(C(=S)SCC(=O)NC3CC3)CC2)n1 ... 1.4
19) COc1cccc2c1nc(C(F)F)n2-c1nc(N2CCOCC2)nc(N2CCN(C(=S)SCC(=O)NC3CCC3)CC2)n1 ... 1.6
20) COc1cccc2c1nc(C(F)F)n2-c1nc(N2CCOCC2)cc(N2CCN(C(=S)SCC(=O)NC3CCCCC3)CC2)n1 ... 12
